Exercise: for every item that follows, state its recorded melting point.

Parameters: items (list). Returns: melting point for each item.
1. CCCC1CC(c2ccc(O)c(Cl)c2)(c2ccc(O)c(Cl)c2)C1
2. CCCCC1CC(c2ccc(O)c(CC)c2)(c2ccc(O)c(CC)c2)C1
3. CCCCC1CC(c2ccc(O)c(C)c2)(c2ccc(O)c(C)c2)C1
4. CC(C)(C)C1CCC1(c1ccc(O)c(Cl)c1)c1ccc(O)c(Cl)c1 (centres unmarked)
5. C[C@H]1[C@H](CC(C)(C)C)CC1(c1ccc(O)c(Cl)c1)c1ccc(O)c(Cl)c1 (relative stereo)

Output line:
["103 to 105 °C", "135 to 138 °C", "135 to 137 °C", "133 to 135 °C", "126 to 128 °C"]
